# self-splicing fitness (ln) per entry
experiment: self-splicing fitness, log relative to wild type (ln ratio); higher = more splicing; Tetrahymena group I intron in knt gene, E. coli kanamycin selection, DiMSum; sequences stand for … in CUCUCU…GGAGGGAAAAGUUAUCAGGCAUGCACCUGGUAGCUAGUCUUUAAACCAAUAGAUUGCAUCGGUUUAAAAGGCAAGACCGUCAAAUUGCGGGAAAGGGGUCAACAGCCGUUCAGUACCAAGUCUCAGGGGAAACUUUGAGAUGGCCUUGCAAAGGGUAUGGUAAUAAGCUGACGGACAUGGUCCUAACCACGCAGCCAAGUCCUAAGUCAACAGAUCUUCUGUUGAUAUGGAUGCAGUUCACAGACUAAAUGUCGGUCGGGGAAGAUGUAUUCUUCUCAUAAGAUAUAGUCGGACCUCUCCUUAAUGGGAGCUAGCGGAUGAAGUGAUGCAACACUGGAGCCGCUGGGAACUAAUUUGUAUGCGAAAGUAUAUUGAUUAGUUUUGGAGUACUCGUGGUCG; settings: 30 °C;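 also: selection with 25 µg/mL kanamycin versus none on LB agar overnight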
quantity_kind: self-splicing fitness (ln)

1) GAAGAGCAAUAUUACGGUAA ... -2.16
2) GUAGAGCAAUAUUACGGUAG ... -2.36
3) GAAAAGCAAUAUUACGGCUU ... -0.227
4) UAAAAGCAAUAUUACGGAGG ... -2.7
5) GCUGAGCAAUAUUACGCGAG ... -2.52
6) UAGCAGCAAUAUUACGGGCC ... -1.45
7) AACUAGCAAUAUUACGCGAU ... -2.64
8) AGUUAGCAAUAUUACGAUCC ... 0.593
9) ACGUAGCAAUAUUACGUUGG ... -4.55
10) GUGUAGCAAUAUUACGCCAU ... -3.15
11) GGCGAGCAAUAUUACGAUGA ... -2.08
12) AUACAGCAAUAUUACGACGU ... -0.374
13) AAUGAGCAAUAUUACGACAA ... -3.01
14) GCAAAGCAAUAUUACGGAUU ... -0.922
15) AUCCAGCAAUAUUACGCGAA ... -0.821
16) CGUUAGCAAUAUUACGUCGA ... -2.71

---

assay: self-splicing fitness, log relative to wild type (ln ratio); higher = more splicing; Tetrahymena group I intron in knt gene, E. coli kanamycin selection, DiMSum; sequences stand for … in CUCUCU…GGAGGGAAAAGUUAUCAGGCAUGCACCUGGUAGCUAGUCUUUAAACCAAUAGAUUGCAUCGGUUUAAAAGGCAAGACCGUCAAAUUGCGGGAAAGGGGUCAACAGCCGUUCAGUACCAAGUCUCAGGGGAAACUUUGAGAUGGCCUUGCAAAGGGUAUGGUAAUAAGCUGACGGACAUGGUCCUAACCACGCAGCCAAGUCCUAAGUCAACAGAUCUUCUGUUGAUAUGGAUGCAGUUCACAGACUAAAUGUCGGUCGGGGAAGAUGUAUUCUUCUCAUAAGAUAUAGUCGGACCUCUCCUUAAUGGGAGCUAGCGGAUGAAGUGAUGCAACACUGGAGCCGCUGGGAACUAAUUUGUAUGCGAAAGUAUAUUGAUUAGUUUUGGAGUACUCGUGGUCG; conditions: 30 °C
self-splicing fitness (ln) by entry:
quantity_kind: self-splicing fitness (ln)

1) UGUAAGCAAUAUUACGCUUA ... -1.79
2) UCCCAGCAAUAUUACGUCUG ... -3.05
3) GCCUAGCAAUAUUACGUAUU ... -1.83
4) UUGCAGCAAUAUUACGACAU ... -0.522
5) AGGAAGCAAUAUUACGGCUC ... -1.07
6) UGGAAGCAAUAUUACGAAGG ... -2.12
7) AAACAGCAAUAUUACGCGCC ... -1.13
8) AGCCAGCAAUAUUACGCAGU ... -4
9) GUGGAGCAAUAUUACGCUCA ... -1.19
10) GAACAGCAAUAUUACGGUCU ... -1.16
11) CCAUAGCAAUAUUACGCUCU ... -4.23
12) CUAGAGCAAUAUUACGCAUU ... -3.2
13) GAGUAGCAAUAUUACGAAUA ... -2
14) UUAAAGCAAUAUUACGAUGA ... 0.452
15) CGAUAGCAAUAUUACGCCUC ... -2.84
16) AGAGAGCAAUAUUACGUUAA ... -3.32
17) UUUGAGCAAUAUUACGGUCC ... -3.88
18) AAAGAGCAAUAUUACGAAUA ... -1.42
19) CCAAAGCAAUAUUACGCUGG ... -4.28
20) GUGUAGCAAUAUUACGGUUC ... -1.04
21) CUUCAGCAAUAUUACGCGCG ... -0.941
22) GAUUAGCAAUAUUACGCUUU ... -2.1
23) GGUAAGCAAUAUUACGAAGG ... -3.74
24) AGAUAGCAAUAUUACGCCCG ... -0.427
25) GUUCAGCAAUAUUACGAGGA ... -3.54
26) AAAUAGCAAUAUUACGUAUC ... -3.12
27) GAAGAGCAAUAUUACGGGAA ... -3.54
28) UCACAGCAAUAUUACGUAUU ... -3.5
29) UUAAAGCAAUAUUACGCCCA ... 0.818
30) GAAAAGCAAUAUUACGGACU ... 0.147
31) AGGCAGCAAUAUUACGUCUA ... -0.469
32) UAGCAGCAAUAUUACGUUUG ... -1.29
33) CCCAAGCAAUAUUACGAUCU ... -2.73
34) GGCGAGCAAUAUUACGCCGG ... -3.4

---

test: self-splicing fitness, log relative to wild type (ln ratio); higher = more splicing; Tetrahymena group I intron in knt gene, E. coli kanamycin selection, DiMSum; sequences stand for … in CUCUCU…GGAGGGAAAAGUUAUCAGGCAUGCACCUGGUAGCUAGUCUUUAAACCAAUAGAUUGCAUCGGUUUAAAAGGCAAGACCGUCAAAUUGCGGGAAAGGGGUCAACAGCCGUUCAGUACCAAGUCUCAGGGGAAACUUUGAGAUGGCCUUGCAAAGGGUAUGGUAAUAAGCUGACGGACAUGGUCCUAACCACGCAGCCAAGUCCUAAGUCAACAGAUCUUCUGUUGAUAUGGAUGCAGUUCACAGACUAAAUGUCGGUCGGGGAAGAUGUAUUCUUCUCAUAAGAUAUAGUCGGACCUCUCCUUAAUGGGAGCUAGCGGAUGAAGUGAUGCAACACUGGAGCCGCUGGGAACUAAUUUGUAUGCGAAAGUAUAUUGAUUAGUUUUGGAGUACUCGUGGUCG; conditions: 37 °C
In this section we review reported self-splicing fitness (ln) values for a set of sequences.
quantity_kind: self-splicing fitness (ln)

1. GAUAAGCAAUAUUACGUUAC ... -2.09
2. AAGUAGCAAUAUUACGCUAA ... -0.343
3. UCAAAGCAAUAUUACGUAAA ... -1.94
4. AUCGAGCAAUAUUACGUGCA ... -1.14
5. CCUCAGCAAUAUUACGCGCG ... -1.45
6. CGACAGCAAUAUUACGGAUG ... -0.0449
7. ACAGAGCAAUAUUACGAGCG ... -2.51
8. ACAGAGCAAUAUUACGGCCG ... -1.33
9. GGGCAGCAAUAUUACGGCUG ... -1.8
10. UUAAAGCAAUAUUACGGGGC ... -2.51
11. ACGUAGCAAUAUUACGUUGA ... -2.78
12. AUACAGCAAUAUUACGAGUA ... -0.461
13. GGUCAGCAAUAUUACGUAUA ... -0.369
14. CUGGAGCAAUAUUACGGAAA ... -2.78
15. AUGUAGCAAUAUUACGUCAA ... -2.98
16. UUGCAGCAAUAUUACGUGCC ... -1.18
17. GUCAAGCAAUAUUACGGGGG ... -2.86
18. AAUGAGCAAUAUUACGAUUA ... -1.37
19. CGCGAGCAAUAUUACGGUUG ... -1.76
20. ACAUAGCAAUAUUACGGAUU ... -1.68
21. UAGAAGCAAUAUUACGCAGU ... -2.07
22. AGGGAGCAAUAUUACGUCUG ... -1.73
23. UUCAAGCAAUAUUACGCUCU ... 0.387
24. CAGCAGCAAUAUUACGACCU ... -1.57
25. UUUAAGCAAUAUUACGGCUU ... -1.86
26. GGUCAGCAAUAUUACGUAUU ... 0.511
27. ACUUAGCAAUAUUACGUGCU ... -1.06
28. GUAUAGCAAUAUUACGCAUU ... -2.28
29. GGAUAGCAAUAUUACGGCCA ... -0.211
30. ACAGAGCAAUAUUACGUGUU ... -2.51
31. AAAAAGCAAUAUUACGUGGA ... -1.86
32. GUUGAGCAAUAUUACGGUAU ... -1.71
33. UUGAAGCAAUAUUACGUAGC ... -2.53
34. GCCCAGCAAUAUUACGCGAG ... -1.73
35. AUCUAGCAAUAUUACGUUAC ... -1.74
36. AGGUAGCAAUAUUACGAGCC ... -0.862
37. UCAUAGCAAUAUUACGGCCA ... -0.442
38. UGUUAGCAAUAUUACGACUA ... -0.164
39. CUGUAGCAAUAUUACGUAUG ... -0.224
40. UAACAGCAAUAUUACGAACC ... -1.73
41. UUAAAGCAAUAUUACGGUUC ... -1.81
42. UUUAAGCAAUAUUACGUGAC ... -2.11
43. AGCGAGCAAUAUUACGCGCA ... -0.546
44. AAACAGCAAUAUUACGAAUC ... -1.54
45. AGAAAGCAAUAUUACGGUUC ... -1.83
46. GUACAGCAAUAUUACGGGAC ... -1.22
47. CUGCAGCAAUAUUACGGCUC ... -2.96
48. AUCUAGCAAUAUUACGCCUG ... -1.39
49. UCUGAGCAAUAUUACGCGCG ... -1.69
50. GAAAAGCAAUAUUACGACUC ... -0.00506
51. UUCGAGCAAUAUUACGGUGU ... -3.35
52. CCUUAGCAAUAUUACGCUCC ... -1.44
53. UUUAAGCAAUAUUACGUUUU ... -1.22
54. UAAGAGCAAUAUUACGAGGA ... -2.25
55. CAACAGCAAUAUUACGUAGA ... -1.18
56. GGUAAGCAAUAUUACGAAGC ... -0.664
57. UGCUAGCAAUAUUACGCCAA ... 0.0147
58. AGCGAGCAAUAUUACGCUAU ... -2.87
59. UGUAAGCAAUAUUACGAUCU ... 0.0759
60. AAUCAGCAAUAUUACGACUG ... 0.27
61. UCGGAGCAAUAUUACGAGCA ... -1.51
62. UACGAGCAAUAUUACGUAAG ... -2.33
63. CUGGAGCAAUAUUACGCGAC ... -1.84
64. CACGAGCAAUAUUACGUAGA ... -3.42
65. AAGUAGCAAUAUUACGGAGG ... -2.5
66. GGUCAGCAAUAUUACGCAAG ... -0.453
67. CGGAAGCAAUAUUACGGUAC ... -1.93
